Test system: S. aureus 33490
Test: agar diffusion test (Test System II, multi-resistant germs)
Type: cell-based, Staphylococcus aureus
Conditions: Quantity n [μmol] 0.1
Listing of recorded Diameter of zone of inhibition by entry.
measured-parameter: Diameter of zone of inhibition

CC1=C(C(=O)O)N2C(=O)[C@@H](NC(=O)[C@H](N)c3ccc(O)cc3)[C@H]2SC1 [2a, Cefadroxil, reference compound]; 24 mm
N[C@@H](C(=O)N[C@@H]1C(=O)N2C(C(=O)O)=C(Cl)CS[C@H]12)c1ccccc1 [2c, Cefaclor, reference compound]; 30 mm
CC1=C(C(=O)O)N2C(=O)C(NC(=O)C(NC3=C(C(N)=O)C(=O)C=CC3=O)c3ccccc3)C2SC1 (centres unmarked) [1f]; 14 mm
COC(=O)C1=C(NC(C(=O)NC2C(=O)N3C(C(=O)O)=C(C)CSC23)c2ccc(O)cc2)C(=O)C=CC1=O (centres unmarked) [1c]; 14 mm
NC(=O)C1=C(NC(C(=O)NC2C(=O)N3C(C(=O)O)=C(Cl)CSC23)c2ccccc2)C(=O)C=CC1=O (centres unmarked) [1j]; 24 mm
